# protocol description: qHTS of pediatric cancer cell lines to identify multiple opportunities for drug repurposing: Primary screen for SK-N-SH cells (AID 1347098); also: nearly all actives have a fitted effect of over 65% in size
# condition notes: SK-N-SH viability, CellTiter-Glo luminescence, 48 h; series mostly up to 57 µM
Results filed as inconclusive are left out. Active and inactive are the calls of the source. Calls follow the shape of the dose curve; as a rule, active = well fitted cell-killing curve with a large enough effect; inconclusive = small, poorly fitted or top-dose-only effect; inactive = no such curve, though single readings can be large or run the other way.
Pick from active, inactive when you respond.

compound=COc1cc(C[C@@H](C)N)c(OC)cc1C category_label=inactive

**Q:** Status in this test for COP(=S)(OC)Oc1ccc(Sc2ccc(OP(=S)(OC)OC)cc2)cc1 ?
**A:** inactive

**Q:** Hey, what did the test say about CCNc1nc(Cl)nc(NCC)n1 ?
**A:** inactive

**Q:** I'd appreciate the recorded outcome for CN(C)C(=S)SSC(=S)N(C)C from this test.
**A:** active

**Q:** Please indicate how the test categorized CC(C)(O)C(Cl)(Cl)Cl .
**A:** inactive

**Q:** Write down the call the test reported for this compound. Item: CCN1CCCC1CNC(=O)C(O)(c1ccccc1)c1ccccc1 (configuration not stated)
**A:** inactive

**Q:** Assay result, entry O=C1CN2CCOC2(c2ccccc2Cl)c2cc(Cl)ccc2N1 (configuration not stated) — outcome?
**A:** inactive

The values you see were collected from PubChem BioAssay (NCATS).
